Molecular target: PDGFRB (human) (UniProt P09619)
Sequence (P09619 whole entry, looked up): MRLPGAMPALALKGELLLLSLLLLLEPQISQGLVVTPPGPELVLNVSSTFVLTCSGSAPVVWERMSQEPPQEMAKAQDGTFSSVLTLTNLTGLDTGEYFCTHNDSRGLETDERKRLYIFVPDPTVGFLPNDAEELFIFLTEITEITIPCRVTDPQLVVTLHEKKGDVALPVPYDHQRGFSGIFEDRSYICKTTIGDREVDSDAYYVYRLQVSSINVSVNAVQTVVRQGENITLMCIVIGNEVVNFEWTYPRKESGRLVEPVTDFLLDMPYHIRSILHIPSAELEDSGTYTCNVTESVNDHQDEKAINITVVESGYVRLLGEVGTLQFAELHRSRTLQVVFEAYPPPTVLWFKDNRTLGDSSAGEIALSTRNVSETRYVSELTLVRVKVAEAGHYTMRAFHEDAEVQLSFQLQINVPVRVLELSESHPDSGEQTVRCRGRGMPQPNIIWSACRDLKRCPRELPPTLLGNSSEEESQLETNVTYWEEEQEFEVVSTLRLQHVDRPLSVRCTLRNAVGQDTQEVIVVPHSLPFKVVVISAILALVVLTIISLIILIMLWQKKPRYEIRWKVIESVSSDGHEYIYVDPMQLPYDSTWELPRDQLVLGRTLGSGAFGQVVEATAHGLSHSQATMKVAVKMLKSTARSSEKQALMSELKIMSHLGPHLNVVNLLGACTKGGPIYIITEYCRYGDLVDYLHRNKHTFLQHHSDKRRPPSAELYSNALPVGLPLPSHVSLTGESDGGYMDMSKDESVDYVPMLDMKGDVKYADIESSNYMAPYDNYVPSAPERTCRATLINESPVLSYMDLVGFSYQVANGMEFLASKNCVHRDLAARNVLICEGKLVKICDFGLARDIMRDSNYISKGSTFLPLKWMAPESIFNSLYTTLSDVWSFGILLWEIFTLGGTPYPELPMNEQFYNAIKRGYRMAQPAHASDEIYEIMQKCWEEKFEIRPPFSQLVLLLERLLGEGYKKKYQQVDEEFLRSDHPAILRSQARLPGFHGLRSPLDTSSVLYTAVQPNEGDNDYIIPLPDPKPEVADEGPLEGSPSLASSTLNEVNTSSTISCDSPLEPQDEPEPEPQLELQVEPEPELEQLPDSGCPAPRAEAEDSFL
Assay: radiometric filter-binding kinase assay, Kinase HotSpot
Conditions: compound 0.5 µM; ATP 10 µM
residual activity values, listed per item
Give just the number in %; leave the unit off.

Solved cases below.
compound=COc1ccc(-c2cnc3c(-c4ccsc4)cnn3c2)cc1 measurement=63.4
compound=Nc1nc(Nc2ccc(S(N)(=O)=O)cc2)nn1C(=O)c1c(F)cccc1F measurement=89.1

## Input // residual activity lookup, key: "Nc1nc(Nc2ccc(S(N)(=O)=O)cc2)nn1C(=S)Nc1c(F)cccc1F"
## Output 45.6

## Input # query: residual activity of entry "Oc1ccc(-c2nc(-c3ccc(F)cc3)c(-c3ccncc3)[nH]2)cc1"
## Output 104

## Input Please look up its residual activity: O=C(NC(NC(=S)Nc1ccc(F)c([N+](=O)[O-])c1)C(Cl)(Cl)Cl)C(c1ccccc1)c1ccccc1 (configuration not stated)
## Output 105

Data origin, for the record: the kinase profiling compilation of Christmann-Franck et al. (2016)
